Reference source for all entries: patent US10766903B2

Biological target: USP7 (Homo sapiens (Human))
Experiment: USP7 fluorescence polarisation (FP) biochemical assay, ubiquitin-Lys-TAMRA substrate
Settings: USP7 IC50, Table 4, biochemical assay; average of at least duplicate experiments
observed_property: IC50

| molecule | observed_property | observed_measurement |
| --- | --- | --- |
| CC(=O)N1CC2(C1)CN(c1cc(=O)n(CC3(O)CCN(C(=O)C[C@@H](C)c4ccccc4)CC3)cn1)C2 [Example 172] | IC50 | 250 to 999 nM |
| C[C@H](CC(=O)N1CCC(O)(Cn2cnc(-c3ccn[nH]3)cc2=O)CC1)c1ccccc1 [Example 3] | IC50 | 250 to 999 nM |

Continue with the molecule presented below.
// C[C@H](CC(=O)N1CCC(O)(Cn2cnc(NCCN3Cc4cccc(F)c4C3)cc2=O)CC1)c1ccccc1 [Example 86, Formic Acid] : IC50 value = 250 to 999 nM

====

Biological target: USP7 (Homo sapiens (Human), UniProt Q93009)
Sequence (Q93009 whole entry): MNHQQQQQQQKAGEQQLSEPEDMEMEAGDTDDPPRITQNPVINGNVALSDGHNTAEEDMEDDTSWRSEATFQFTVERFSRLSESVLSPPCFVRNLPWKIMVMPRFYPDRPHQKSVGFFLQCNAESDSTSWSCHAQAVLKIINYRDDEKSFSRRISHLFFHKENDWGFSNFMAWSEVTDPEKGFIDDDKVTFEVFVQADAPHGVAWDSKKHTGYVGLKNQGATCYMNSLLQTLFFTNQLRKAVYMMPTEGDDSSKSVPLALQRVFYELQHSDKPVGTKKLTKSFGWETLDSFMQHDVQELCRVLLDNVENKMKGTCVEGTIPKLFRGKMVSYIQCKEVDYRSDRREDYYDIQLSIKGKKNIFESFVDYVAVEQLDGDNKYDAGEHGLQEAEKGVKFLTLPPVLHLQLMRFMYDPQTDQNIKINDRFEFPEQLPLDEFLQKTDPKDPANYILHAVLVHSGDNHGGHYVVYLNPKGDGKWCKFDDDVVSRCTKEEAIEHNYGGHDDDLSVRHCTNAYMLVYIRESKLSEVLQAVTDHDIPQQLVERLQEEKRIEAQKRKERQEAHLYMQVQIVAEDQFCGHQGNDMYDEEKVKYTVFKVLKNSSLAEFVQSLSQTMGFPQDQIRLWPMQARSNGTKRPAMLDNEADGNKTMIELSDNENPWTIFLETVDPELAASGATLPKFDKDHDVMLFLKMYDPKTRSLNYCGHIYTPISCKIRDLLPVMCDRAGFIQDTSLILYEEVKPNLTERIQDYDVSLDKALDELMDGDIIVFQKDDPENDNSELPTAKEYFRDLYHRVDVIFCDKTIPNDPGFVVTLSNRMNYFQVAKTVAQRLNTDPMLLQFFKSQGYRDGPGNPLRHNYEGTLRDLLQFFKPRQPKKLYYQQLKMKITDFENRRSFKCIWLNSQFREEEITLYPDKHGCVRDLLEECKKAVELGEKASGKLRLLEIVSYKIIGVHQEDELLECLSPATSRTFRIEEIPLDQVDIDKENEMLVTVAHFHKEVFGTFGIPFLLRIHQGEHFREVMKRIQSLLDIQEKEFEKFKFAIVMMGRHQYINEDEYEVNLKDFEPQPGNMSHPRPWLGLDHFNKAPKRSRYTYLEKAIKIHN
Assay: USP7 fluorescence polarisation (FP) biochemical assay, ubiquitin-Lys-TAMRA substrate
Settings: Table 4, biochemical assay; average of at least duplicate experiments; read-out: USP7 IC50
observed_property: IC50

| compound | IC50 |
| --- | --- |
| C[C@H](CC(=O)N1CCC(O)(Cn2cnc(NC3(C)COC3)cc2=O)CC1)c1ccccc1 [Example 155] | 1000 to 200000 nM |
| O=C(CC(C1CC1)C1CC1)N1CCC(O)(Cn2cnc(NCCN3CCCC3)cc2=O)CC1 [Example 133] | 250 to 999 nM |
| CC1(C(=O)N2CCC(O)(Cn3cnc4c(cc(Cl)n4-c4ccc(C5CC5)cc4)c3=O)CC2)CC1 [Example 220] | < 250 nM |
| Cn1cc(-c2cccc(-n3c(Cl)cc4c(=O)n(CC5(O)CCN(C(=O)c6cnc(C7CC7)o6)CC5)cnc43)c2)cn1 [Example 211] | < 250 nM |
| COCC(CC(=O)N1CCC(O)(Cn2cnc3c(-c4ccc(CN)cc4)n(C)nc3c2=O)CC1)c1ccccc1 (racemic) [Example 53] | < 250 nM |
| Cn1nc2c(=O)n(CC3(O)CCN(C(=O)C[C@H](c4ccccc4)C(F)F)CC3)cnc2c1-c1ccc(CN)cc1 [Example 80] | < 250 nM |

// below: IC50 requested for another compound
Data point: C[C@H](CC(=O)N1CCC(O)(Cn2cnc(NCC3CCOCC3)cc2=O)CC1)c1ccccc1 [Example 163] ; IC50 = 1000 to 200000 nM

====

Assignment: determine reported IC50 for the given molecules.
Target: USP7 (Homo sapiens (Human))
Experiment: USP7 fluorescence polarisation (FP) biochemical assay, ubiquitin-Lys-TAMRA substrate
Details: Table 3, effect of the R2 substituent; read-out: USP7 IC50
One number for each entry, in µM.

| item_smiles | reading_unit | IC50 |
| --- | --- | --- |
| Cn1nc2c(=O)n(CC3(O)CCN(C(=O)CCc4ccccc4)CC3)cnc2c1C(F)(F)F | µM | 14 |

What the record says about "C[C@H](CC(=O)N1CCC(O)(Cn2cnc3cn(C)nc3c2=O)CC1)c1ccccc1" : IC50 is 3

====

Molecular target: USP7 (Homo sapiens (Human), UniProt Q93009)
Assay: USP7 fluorescence polarisation (FP) biochemical assay, ubiquitin-Lys-TAMRA substrate
Conditions: Table 4, biochemical assay; average of at least duplicate experiments; read-out: USP7 IC50
Procedure: Measurement of USP7 Inhibitory Activity USP7 activity was monitored in a fluorescence polarisation (FP) homogeneous assay using the isopeptide ubiquitin-Lys-TAMRA substrate (U-558, Boston Biochem). Full-length USP7 was purchased from Boston Biochem (His6-USP7FL, E-519). […] FP was measured every 15 min over a period of 1.5 h (within the linear range of the assay) using a Synergy 4 plate reader (BioTek) exciting at 530 nm and measuring the amount of parallel and perpendicular light at 575 nm. […]
observed_property: IC50

Recorded IC50, per entry:
| item_smiles | IC50 |
| --- | --- |
| C[C@H](CC(=O)N1CCC(O)(Cn2cnc3c(-c4ccncc4)n(C)nc3c2=O)CC1)c1ccccc1 | 250 to 999 nM |
| CC1(C(=O)N2CCC(O)(Cn3cnc4c(cc(Br)n4-c4ccccc4)c3=O)CC2)CC1 | < 250 nM |
| C[C@H](CC(=O)N1CCC(O)(Cn2cnc(N3CCC[C@H](N(C)C)C3)cc2=O)CC1)c1ccccc1 | < 250 nM |

Let us move to another entry and its IC50.
// "C[C@H](CN1CCCC1)Nc1cc(=O)n(CC2(O)CCN(C(=O)C[C@@H](C)c3ccccc3)CC2)cn1" : IC50 value = < 250 nM
